// data source = the supplement of paper PMC3545927

molecular target: furin, P09958; test: furin cleavage Z-score vs untreated control; higher = more cleavage, active = 3.5 or more, inactive = 1 or less, 8 variable residues between constant flanks; conditions: 15 min;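 also: purified furin at 1:10 enzyme:substrate in 50 mM HEPES pH 7.5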
Sequence (P09958 whole entry): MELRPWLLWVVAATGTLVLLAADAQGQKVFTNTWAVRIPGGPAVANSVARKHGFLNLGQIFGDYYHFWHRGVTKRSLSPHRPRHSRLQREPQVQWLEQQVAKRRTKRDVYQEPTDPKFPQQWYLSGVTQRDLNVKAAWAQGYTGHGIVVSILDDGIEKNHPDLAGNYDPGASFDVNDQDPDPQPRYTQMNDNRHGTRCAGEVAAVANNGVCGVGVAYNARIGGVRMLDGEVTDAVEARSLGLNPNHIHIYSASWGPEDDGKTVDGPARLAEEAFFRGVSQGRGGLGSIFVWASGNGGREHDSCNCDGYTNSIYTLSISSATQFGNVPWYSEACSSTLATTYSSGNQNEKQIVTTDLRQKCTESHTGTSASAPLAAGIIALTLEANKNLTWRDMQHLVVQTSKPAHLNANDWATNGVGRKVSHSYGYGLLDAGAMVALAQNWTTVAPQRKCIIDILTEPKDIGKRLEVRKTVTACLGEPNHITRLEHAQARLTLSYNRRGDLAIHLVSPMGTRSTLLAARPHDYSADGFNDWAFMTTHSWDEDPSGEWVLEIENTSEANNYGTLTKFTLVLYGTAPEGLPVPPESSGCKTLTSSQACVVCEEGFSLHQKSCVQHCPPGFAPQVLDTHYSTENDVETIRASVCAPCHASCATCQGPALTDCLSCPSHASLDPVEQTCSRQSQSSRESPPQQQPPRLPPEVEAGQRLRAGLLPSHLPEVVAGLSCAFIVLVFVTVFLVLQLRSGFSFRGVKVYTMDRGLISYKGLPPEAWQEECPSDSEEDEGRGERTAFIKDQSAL
The list shows a part of the results. The true hit rate is not given.
# key: entry, value: furin cleavage Z-score
Enter a number only.

Fill in: furin cleavage Z-score of CASTPCSAGLAGNASASA [HC2556] is ___ -0.11

Queued: CARKRRAPHGAGNASASA [FS-2493] 5.64

Queued: CARKRRRQHGAGNASASA [FS-2974] -0.0293

Queued: CARKRRKGKAAGNASASA [FS-2973] 1.85
